Tested on: HCI01 (cells of a triple-negative basal-like breast cancer xenograft)
Assay: cell viability of combination (% of vehicle); higher = less cytotoxic
Settings: 1 µM; 72 h; partner dose: 10 nM
Below: a set of entries, each annotated with reported cell viability of combination.
Please reply with the value in numeric form only.

COC(=O)C1=C(C)NC(C)=C(C(=O)OCCN(C)Cc2ccccc2)C1c1cccc([N+](=O)[O-])c1.Cl (configuration not stated) [Nicardipine HCl] + CN(C)C/C=C/C(=O)Nc1cc2c(Nc3ccc(F)c(Cl)c3)ncnc2cc1O[C@H]1CCOC1 [Afatinib] = 58.7

Here's the next entry for you.
Test system HCI01; read-out cell viability of combination; what value for Clc1ccc(COC(Cn2ccnc2)c2ccc(Cl)cc2Cl)cc1.O=[N+]([O-])O (configuration not stated) [Econazole nitrate] + CN(C)C/C=C/C(=O)Nc1cc2c(Nc3ccc(F)c(Cl)c3)ncnc2cc1O[C@H]1CCOC1 [Afatinib] ?
55.8

====

Test system: HCI16 (cells of a triple-negative basal-like breast cancer xenograft)
Assay: cell viability (% of vehicle); higher = less cytotoxic
Details: 10 µM; 72 h
The following molecules are shown together with reported cell viability values.
Number only, please.

Consider the reported cell viability for these molecules:
NNC(=O)c1ccncc1 [Isoniazid] = 127
CN1CCN(CCOc2cc(OC3CCOCC3)c3c(Nc4c(Cl)ccc5c4OCO5)ncnc3c2)CC1 [Saracatinib (AZD0530)] = 69.1
Nc1ccc(C(=O)[O-])c(O)c1.O.O.[Na+] [Sodium 4-Aminosalicylate] = 143

Name the reported cell viability value associated with the molecule Cc1cc(-n2c(=O)[nH]c(=O)n(C)c2=O)ccc1Oc1ccc(SC(F)(F)F)cc1 [Toltrazuril]
115

Any idea what cell viability was measured for COC(=O)CCc1ccc(OCC(O)CNC(C)C)cc1.Cl (centres undefined) [Esmolol HCl] ?
122

// returns reported cell viability for input NC(CSCCCO)C(=O)O (centres undefined) [Fudosteine]
96.1

// lookup cell viability for CCOc1cc(C(CS(C)(=O)=O)N2C(=O)c3cccc(NC(C)=O)c3C2=O)ccc1OC (centres undefined)
135

Entry under review: CN(C)CC(c1ccc(O)cc1)C1(O)CCCCC1.O.O=C(O)CCC(=O)O (centres undefined) [Desvenlafaxine Succinate] . Reported cell viability?
129

Which value of cell viability has been reported for Nc1nc(=O)n(C2CSC(CO)O2)cc1F (centres undefined) [Emtricitabine] in the records?
94.6

====

Tested on: HCI01
Assay: cell viability (% of vehicle); higher = less cytotoxic
Settings: 10 µM; 72 h
measuredEndpoint: cell viability

Observe how each entry below is paired with its result.
CC(C(=O)O)c1ccc2c(c1)Cc1cccnc1O2 (centres undefined) = 113
CN1CCCC(n2nc(Cc3ccc(Cl)cc3)c3ccccc3c2=O)CC1.Cl (centres undefined) [Azelastine HCl] = 142
COc1ccccc1N1CCN(CC(O)COc2cccc3ccccc23)CC1 (centres undefined) = 116
CC(NCCCc1cccc(C(F)(F)F)c1)c1cccc2ccccc12.Cl (centres undefined) [Cinacalcet HCl] = 38.8
NC(=O)c1ccc(I)c([N+](=O)[O-])c1 = 121

Looking for the measured cell viability of O=C([O-])Cc1ccccc1Nc1c(Cl)cccc1Cl.[Na+] [Diclofenac Sodium] , can you help?
94.9

Sample "O=c1cc[nH]c(=S)[nH]1" — what was its cell viability?
107

Quick one: cell viability for CNCC(O)c1cccc(O)c1.Cl (centres undefined) [Phenylephrine HCl] ?
110

Return reported cell viability; argument: "CN(C)C(=O)c1cc2cnc(Nc3ccc(N4CCNCC4)cn3)nc2n1C1CCCC1"
109

====

Test system: HCI13 (cells of an ER-positive luminal breast cancer xenograft)
Assay: cell viability (% of vehicle); higher = less cytotoxic
Conditions: 10 µM; 72 h
Threshold check on cell viability: strictly below 80 is yes; on or above 80 is no.

The following molecules have reported results that may help.
O=C(O)C=CC(=O)O.OCCOCCN1CCN(C2=Nc3ccccc3Sc3ccccc32)CC1.OCCOCCN1CCN(C2=Nc3ccccc3Sc3ccccc32)CC1 [Quetiapine Fumarate] = no
Nc1ncnc2c1ncn2C1OC(CO)C(O)C1O (configuration not stated) = no

Consider CN(C)CCOc1ccc(C(=C(CCCl)c2ccccc2)c2ccccc2)cc1.O=C(O)CC(O)(CC(=O)O)C(=O)O [Toremifene Citrate] . Does its cell viability lie strictly below 80?
yes

Please check: cell viability for CCOC(=O)C(CCc1ccccc1)NC(C)C(=O)N1C(=O)N(C)CC1C(=O)O.Cl (configuration not stated) [Imidapril HCl] , strictly under 80 or not?
no

====

System: UCD52 (cells of a triple-negative basal-like breast cancer xenograft)
Assay: cell viability (% of vehicle); higher = less cytotoxic
Settings: 10 µM; 72 h
cell viability under 90 gets fulfilled, anything at or over 90 gets not fulfilled.

A selection of reference data follows.
c1coc(CNc2ncnc3nc[nH]c23)c1 = not fulfilled
Cl.Cl.O=C1c2c(O)ccc(O)c2C(=O)c2c(NCCNCCO)ccc(NCCNCCO)c21 [Mitoxantrone HCl] = fulfilled
COC1C(O)CC(=O)OC(C)CC=CC=CC(OC2CCC(N(C)C)C(C)O2)C(C)CC(CC=O)C1OC1OC(C)C(OC2CC(C)(O)C(O)C(C)O2)C(N(C)C)C1O (stereo not drawn) = not fulfilled
Cc1c(-c2ccccc2)oc2c(C(=O)OCCN3CCCCC3)cccc2c1=O.Cl [Flavoxate hydrochloride] = not fulfilled
COC(c1ccccc1)(c1ccccc1)C(Oc1nc(C)cc(C)n1)C(=O)O (stereo not drawn) = fulfilled

Hello, is cell viability of the following compound strictly smaller than 90? "c1ccc2[nH]c(-c3cscn3)nc2c1"
not fulfilled

====

Tested on: HCI11 (cells of an ER-positive luminal breast cancer xenograft)
Assay: cell viability (% of vehicle); higher = less cytotoxic
Details: 10 µM; 72 h
measuredEndpoint: cell viability
Just the number, please, no unit after it.

CO[C@H]1/C=C/O[C@@]2(C)Oc3c(C)c(O)c4c(c3C2=O)C(=O)/C(=C/NN2CCN(C)CC2)C(=C4O)NC(=O)/C(C)=C/C=C/[C@H](C)[C@H](O)[C@@H](C)[C@@H](O)[C@@H](C)[C@H](OC(C)=O)[C@@H]1C [Rifampin] = 94.5
CC(=O)Oc1cc2c(s1)CCN(C(C(=O)C1CC1)c1ccccc1F)C2.Cl (stereo unspecified) [Prasugrel hydrochloride] = 120
Cc1cc(-n2c(=O)[nH]c(=O)n(C)c2=O)ccc1Oc1ccc(SC(F)(F)F)cc1 [Toltrazuril] = 84
COc1ccc2c(O[C@H]3CC4C(=O)N(C)CCCC/C=C\[C@H]5C[C@@]5(C(=O)NS(=O)(=O)C5CC5)NC(=O)[C@@H]4C3)cc(-c3nc(C(C)C)cs3)nc2c1C (stereo partly specified) [Simeprevir] = 72.7
O=C1NC([O-])=NC1(c1ccccc1)c1ccccc1.[Na+] [Phenytoin sodium] = 101

Moving on to another molecule below.
Bench note: what cell viability did CCCc1nc(C(C)(C)O)c(C(=O)OCc2oc(=O)oc2C)n1Cc1ccc(-c2ccccc2-c2nn[nH]n2)cc1 [Olmesartan medoxomil] show?
162

====

Form field: cell viability (one value per entry).
System: WHIM2 (cells of a triple-negative basal-like breast cancer xenograft)
Experiment: cell viability (% of vehicle); higher = less cytotoxic
Settings: 10 µM; 72 h
Just the number, please, no unit attached.

O=c1oc2cc(O)ccc2s1 = 129

Quick check: cell viability of "COc1cc(C=CC(=O)CC(=O)C=Cc2ccc(O)c(OC)c2)ccc1O" ?
145

State the recorded cell viability for this entry: COC(=O)C1=C(C)NC(C)=C(C(=O)OC(C)C)C1c1cccc2nonc12 (centres undefined)
92.5

Look up cell viability: "CC(C)c1cc(C(=O)N2Cc3ccc(CN4CCN(C)CC4)cc3C2)c(O)cc1O"
75.3

Given the compound CC(C(=O)O)c1ccc(C(=O)c2cccs2)cc1 (centres undefined) , what is its reported cell viability?
107

// query cell viability value for entry CNCCc1ccccn1.Cl.Cl [Betahistine 2HCl]
93.5

# cell viability lookup, item CN(C)CCC=C1c2ccccc2COc2ccc(CC(=O)O)cc21.Cl [Olopatadine HCl]
87.1

Query: cell viability; subject: Cl.O=C1OC(CN2CCOCC2)CN1N=Cc1ccc([N+](=O)[O-])o1 (centres undefined) [Furaltadone HCl]
42.7

Entry "CC(=O)c1c(C)c2cnc(Nc3ccc(N4CCNCC4)cn3)nc2n(C2CCCC2)c1=O.Cl" has what cell viability?
88.8

====

Listed next: entries and their corresponding cell viability.
Tested on: UCD52
Assay: cell viability (% of vehicle); higher = less cytotoxic
Conditions: 1 µM; 72 h
Form: value (number only, do not type unit).

Here is how some molecules turned out for cell viability.
COC1=C(OC)C(=O)C(CCCCCCCCCCO)=C(C)C1=O = 90.2
CN(C)CC=CC(=O)Nc1cc2c(Nc3ccc(F)c(Cl)c3)ncnc2cc1OC1CCOC1.O=C(O)C=CC(=O)O.O=C(O)C=CC(=O)O (configuration not stated) [Afatinib dimaleate] = 32.7
CC(=O)c1cc2c(o1)C(=O)c1ccccc1C2=O = 29.6

For the molecule COc1cc(Nc2c(C#N)cnc3cc(OCCCN4CCN(C)CC4)c(OC)cc23)c(Cl)cc1Cl [Bosutinib (SKI-606)] , what cell viability is on record?
30.4

Fill in: cell viability of CC(C)(C)c1ccc(C(O)CCCN2CCC(C(O)(c3ccccc3)c3ccccc3)CC2)cc1 (configuration not stated) is ___
79.9

Quick check: cell viability of "[O-]n1ccccc1=S.[O-]n1ccccc1=S.[Zn+2]" ?
67.2

Dear colleague, I am looking for the recorded cell viability of the following molecule: "COc1cc(C(=O)NS(=O)(=O)c2ccccc2C)ccc1Cc1cn(C)c2ccc(NC(=O)OC3CCCC3)cc12"
95.3
